Assignment: determine reported protein stability index for the given variants.
B1: TRIM14 (parent)
chain: YARTPTLDPDTMHARLRLSADRLT

- Variants of: B1
- testProtocol: protein stability index of a GFP-peptide fusion (GPS, HEK-293T) (PSI 1-6); higher = more stable;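 further: lentivirally expressed fusions sorted by FACS into six bins by GFP to DsRed ratio, PSI derived from sequencing read proportions per bin multiplied by bin number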
- conditionContext: c terminus: a fixed tail appended

Dear colleague, please send me the reported protein stability index for YARTPGLDPDTMHARLRLSADRLT when you can.
2.37

Dear colleague, please send me the reported protein stability index for YARTPTLDPDTMHARLRLSHDRLT when you can.
2.56

Dear colleague, please send me the reported protein stability index for YARTPTLDPDTMHARLRLSADRLR when you can.
3.13

Dear colleague, please send me the reported protein stability index for YARTPTLDPDTIHARLRLSADRLT when you can.
2.62

Dear colleague, please send me the reported protein stability index for YARTPRLDPDTMHARLRLSADRLT when you can.
1.94

Dear colleague, please send me the reported protein stability index for YARTPTLDPDTCHARLRLSADRLT when you can.
2.34

Dear colleague, please send me the reported protein stability index for YARTPTLDPDHMHARLRLSADRLT when you can.
2.12

Dear colleague, please send me the reported protein stability index for YARTPTLDPDAMHARLRLSADRLT when you can.
2.68

Dear colleague, please send me the reported protein stability index for YARTPTLWPDTMHARLRLSADRLT when you can.
2.08

Dear colleague, please send me the reported protein stability index for YARTPTTDPDTMHARLRLSADRLT when you can.
2.46

Dear colleague, please send me the reported protein stability index for YARTPTLDPDPMHARLRLSADRLT when you can.
2.79

Dear colleague, please send me the reported protein stability index for YARTPTLDPDTMHARLRESADRLT when you can.
3.06

Dear colleague, please send me the reported protein stability index for YARTPTLDPDTMHARLRLSADRLL when you can.
1.76

Dear colleague, please send me the reported protein stability index for YARTPTLDPDTMYARLRLSADRLT when you can.
2.3

Dear colleague, please send me the reported protein stability index for YARTPTLDPDTMHARLRLSADRFT when you can.
2.13

Dear colleague, please send me the reported protein stability index for YARTPTLDPDTMHIRLRLSADRLT when you can.
2.13

Dear colleague, please send me the reported protein stability index for YARTPTEDPDTMHARLRLSADRLT when you can.
3.65

Dear colleague, please send me the reported protein stability index for YARTITLDPDTMHARLRLSADRLT when you can.
2.17

Dear colleague, please send me the reported protein stability index for YARTPTLDADTMHARLRLSADRLT when you can.
2.82

Dear colleague, please send me the reported protein stability index for YARTPTLDPDTMHAHLRLSADRLT when you can.
2.73

Dear colleague, please send me the reported protein stability index for YARTPTLDPDGMHARLRLSADRLT when you can.
2.39

Dear colleague, please send me the reported protein stability index for YARTPTLDPDTMHARLRLSWDRLT when you can.
3.31

Dear colleague, please send me the reported protein stability index for YARTPTLDPDMMHARLRLSADRLT when you can.
2.12

Dear colleague, please send me the reported protein stability index for YARTPTLDPDTMHARLRLSADRLA when you can.
2.82

Dear colleague, please send me the reported protein stability index for YARTPTLDPDTMHARLRLSAFRLT when you can.
2.34

Dear colleague, please send me the reported protein stability index for YARTPTLDPDTMHARHRLSADRLT when you can.
3.27

Dear colleague, please send me the reported protein stability index for YARTPTLDPDTMHARLRLAADRLT when you can.
2.5

Dear colleague, please send me the reported protein stability index for YARTPTLDPDTMMARLRLSADRLT when you can.
2.69

Dear colleague, please send me the reported protein stability index for YATTPTLDPDTMHARLRLSADRLT when you can.
3.05

Dear colleague, please send me the reported protein stability index for YARTCTLDPDTMHARLRLSADRLT when you can.
2.18

Dear colleague, please send me the reported protein stability index for YAHTPTLDPDTMHARLRLSADRLT when you can.
3.12

Dear colleague, please send me the reported protein stability index for YARTPTLAPDTMHARLRLSADRLT when you can.
2.15

Dear colleague, please send me the reported protein stability index for YARTPDLDPDTMHARLRLSADRLT when you can.
3.4

Dear colleague, please send me the reported protein stability index for YKRTPTLDPDTMHARLRLSADRLT when you can.
2.98

Dear colleague, please send me the reported protein stability index for YARTPTLDPDTMHMRLRLSADRLT when you can.
2.36

Dear colleague, please send me the reported protein stability index for YARTHTLDPDTMHARLRLSADRLT when you can.
2.84

Dear colleague, please send me the reported protein stability index for YARTPTLDPDTMHCRLRLSADRLT when you can.
2.62

Dear colleague, please send me the reported protein stability index for YARAPTLDPDTMHARLRLSADRLT when you can.
2.37

Dear colleague, please send me the reported protein stability index for YARTPTLDPDTMHARLRFSADRLT when you can.
2.04
